Where do these numbers come from? They come from patent US20110166149A1.

Experiment: Inhalation exposure: Compound A concentration in lung, plasma and BALF (Example 2)
Type: in vivo, BALB/c mice
Details: male, BALB/c, mouse, lung, inhaled; mice, 30 min inhalation, nominal aerosol 0.02 mg/L, 24 h; read-out: Compound A concentration Lung
experimental-readout: concentration at 24 h
# output: numeric value plus its unit

Short answer for Nc1nc(N)c2nc(-c3cccc(O)c3)c(-c3cccc(O)c3)nc2n1 [Compound A] : concentration at 24 h was 3390 ng/g

====

Assay: Inhalation exposure: Compound A concentration in lung, plasma and BALF (Example 2)
Type: in vivo, BALB/c mice
Settings: male, BALB/c, mouse, lung, inhaled; mice, 30 min inhalation, nominal aerosol 0.02 mg/L, 1 h; read-out: Compound A concentration Lung
experimental-readout: concentration at 1 h (ng/g)
Lab book: enter the figure in ng/g, no units written.

Looking up Nc1nc(N)c2nc(-c3cccc(O)c3)c(-c3cccc(O)c3)nc2n1 , I found its concentration at 1 h recorded as 11800

====

Test: Inhalation exposure: Compound A concentration in lung, plasma and BALF (Example 2)
Assay type: in vivo, BALB/c mice
Details: male, BALB/c, mouse, BALF, inhaled; mice, 30 min inhalation, nominal aerosol 0.02 mg/L, 0.5 h; read-out: Compound A concentration BALF
experimental-readout: concentration at 0.5 h (ng/mL)
Your answer should be a plain number; it is taken to be in ng/mL.

The compound listed as Nc1nc(N)c2nc(-c3cccc(O)c3)c(-c3cccc(O)c3)nc2n1 has a reported concentration at 0.5 h of 457

====

Test: Inhalation exposure: Compound A concentration in lung, plasma and BALF (Example 2)
Assay type: in vivo, BALB/c mice
Settings: male, BALB/c, inhaled or intranasal, 0.27 mg/kg; mouse BALF, aerosol conc. 0.07 mg/L
experimental-readout: Tmax (min)
The reply should contain only the number, in min.

For this compound ( Nc1nc(N)c2nc(-c3cccc(O)c3)c(-c3cccc(O)c3)nc2n1 [Compound A] ), measured Tmax is 4.8

====

Assay: Inhalation exposure: Compound A concentration in lung, plasma and BALF (Example 2)
Format: in vivo, BALB/c mice
Conditions: male, BALB/c, inhaled or intranasal; mouse lung, aerosol conc. 0.2 mg/L
experimental-readout: Tmax (min)
Respond numerically; units are min and should not be typed.

Note to self: Tmax recorded for Nc1nc(N)c2nc(-c3cccc(O)c3)c(-c3cccc(O)c3)nc2n1 was 30

====

Test: Inhalation exposure: Compound A concentration in lung, plasma and BALF (Example 2)
Format: in vivo, BALB/c mice
Conditions: male, BALB/c, mouse, lung, inhaled; mice, 30 min inhalation, nominal aerosol 0.02 mg/L, 0.5 h; read-out: Compound A concentration Lung
experimental-readout: concentration at 0.5 h
Reply with the number and its unit after it.

Measured concentration at 0.5 h, Nc1nc(N)c2nc(-c3cccc(O)c3)c(-c3cccc(O)c3)nc2n1 : 11700 ng/g

====

Experiment: Inhalation exposure: Compound A concentration in lung, plasma and BALF (Example 2)
Assay type: in vivo, BALB/c mice
Details: male, BALB/c, inhaled or intranasal, 0.27 mg/kg; mouse BALF, aerosol conc. 0.07 mg/L
experimental-readout: Cmax (ng/mL)
Numbers only; they are read as ng/mL.

Documented Cmax of Nc1nc(N)c2nc(-c3cccc(O)c3)c(-c3cccc(O)c3)nc2n1 : 2140
